MEASURED_TARGET: Kdn(a2-6)Gal(b1-4)GlcNAc
ASSAY_TEXT: glycan array binding signal (z-score within array); higher = stronger binding
RUN_CONDITIONS: glycan notation: IUPAC condensed, linker removed
Shown is part of a subset that was picked to be rich in the strongest signals.

BINDER	glycan array binding signal (z-score)
HA-00510 (Pseudomonas aeruginosa), Q02V39_PSEAB (protein) GVPIVNIATPNGAGLSNNHFRDYNVGANGLILNNATGKTQGTQLGGIILGNPNLKGQAAQVILNQVTGGNRSTLAGYTEVAGQSARVIVANPHGITCQGCGFINTPRATLTTGKPIMDGQRLERFQVDGGDIVVEGAELNVGNLEQFDLITRSAKLNAKLYAKNLNIVTGRNDVQADSLQATPRAADGSEKPQLAIDSSALGGMYAGAIRLVGTEQGVGVKLAGDMAASGGDIRIDASGKLSLAQASSQGDLKIAAQAVELNGKTYAGGSAEIRSAEELVNRQS	-0.045

Hello, the source for this data is the supplement of paper PMC8728848, in case you need it.
